System: 786-0
assay.summary: NCI tumour cell line growth inhibition, 48 h
The source made the active and inactive calls. Cut-off read from the data, not from the text of the source: active = GI50 up to about 1.1 µM and inactive = higher.
measured.endpoint: GI50

Cc1ccc(S(=O)(=O)c2ccccn2)cc1
> 100 µM (inactive)
CCOc1cc(/C=N/c2nc3cc4sc(/N=C/c5ccc(O)c(OCC)c5)nc4cc3s2)ccc1O
> 100 µM (inactive)
O=c1cc(-c2ccccc2)oc2ccc(-c3ccc4oc(-c5ccccc5)cc(=O)c4c3)cc12
28.4 µM (inactive)
CC1OC(OC2C(O)C(O)C(O)C(O)C2O)C(N)CC1NC(=N)C(=O)O (stereo not given)
> 100 µM (inactive)

Prompt: Record request: GI50 value, item CCC1(CC)N=C(C(F)(F)F)c2cc(C(=O)C(F)(F)F)c3ccccc3c2N1
Response: 3.87 µM (inactive)

====

System: BT-549
assay.summary: NCI tumour cell line growth inhibition, 48 h
The source made the active and inactive calls. Rule as the data show it: active = GI50 up to about 1.1 µM and inactive = higher.
Could you please report measured GI50 for the items listed next?

Oc1ccc2ccccc2c1C(c1ccc(Cl)cc1)c1c(O)ccc2ccccc12
4.65 µM (inactive)
CCN(C(=O)N[C@@H](Cc1ccccc1)C(=O)N[C@@H](CC(C)C)C(=O)OC)c1ccccc1
57.1 µM (inactive)
CC1Cc2cc(O)ccc2C2[C@@H]1C1CC[C@H](O)[C@@]1(C)C[C@@H]2O[N+](=O)[O-] (stereo partly specified)
10.9 µM (inactive)
NC(=S)N/N=C1\CCCCc2ccccc21
> 10 µM (inactive)
CC(C)NC(NC(C)C)=C(S(=O)(=O)C(F)(F)C(F)(F)C(F)(F)C(F)(F)F)S(=O)(=O)C(F)(F)C(F)(F)C(F)(F)C(F)(F)F
90.8 µM (inactive)

Value sought for every listed compound: GI50.
1. COC1=CC(=O)c2c(c(COC(C)=O)cn2C)C1=O
2. OCCCNCC(O)c1ccc(OCc2ccccc2)c(OCc2ccccc2)c1 (stereo unspecified)
3. O=S1(=O)OCCOS(=O)(=O)C1F
4. CC(=O)Oc1ccc(/C=C/C(=O)O[C@@H](C)[C@H](C)OC(=O)/C=C/c2ccc(OC(C)=O)c(OC(C)=O)c2)cc1OC(C)=O
5. COc1ccc(N2C(=O)C3ON(Cc4ccc(CC(N)=O)cc4)C(c4c5ccccc5c(C)c5ccccc45)C3C2=O)cc1 (stereo unspecified)
6. COc1nc(Cl)nc(N[C@H](C)c2c3ccccc3cc3ccccc23)n1

Response:
["0.0208 µM (active)", "15.8 µM (inactive)", "0.0293 µM (active)", "10 µM (inactive)", "30.1 µM (inactive)", "18 µM (inactive)"]

Value sought for every listed compound: GI50.
1. CC(C)=CCN1c2ccccc2NC(=O)CC1C (stereo unspecified)
2. C=Cc1nc2nnc(CCCCCCCCc3nnc4nc(C=C)[nH]n34)n2[nH]1
3. O=C(CNc1ccc(Cl)cc1Cl)Nn1c(-c2ccccc2)nc2ccccc2c1=O
4. COc1cc(/C=C/C(=O)OC[C@H](Br)[C@H](OC(C)=O)c2ccc3c(c2)OCO3)cc(OC)c1OC

Response:
1: 22.7 µM (inactive); 2: > 100 µM (inactive); 3: 16.3 µM (inactive); 4: > 100 µM (inactive)

Value sought for every listed compound: GI50.
1. Oc1cc(N2CCCC2)ccc1/C=N/N1C(=S)N(c2ccccc2)C(=N\c2ccccc2)/C1=N/c1ccccc1
2. CCOc1cc(/C=N/c2nc3cc4sc(/N=C/c5ccc(O)c(OCC)c5)nc4cc3s2)ccc1O
3. C1CN2CCNCCN(CCN1)CC2
4. O=S(=O)(CC(O)C(Cl)(Cl)Cl)NNc1ccccc1 (stereo unspecified)

Response:
> 100 µM (inactive)
> 100 µM (inactive)
> 100 µM (inactive)
> 100 µM (inactive)

Value sought for every listed compound: GI50.
1. C[C@]12CC[C@H](O)CC1=CC[C@@H]1[C@@H]2CC[C@]2(C)C(=N/N)/C(=N\O)C[C@@H]12
2. Cc1ccc(/N=N/C(=O)NNc2ccc(C)cc2Br)c(Br)c1
3. O=C1C=Cc2c(I)sc(I)c21

Response:
["32.8 µM (inactive)", "27.2 µM (inactive)", "17.6 µM (inactive)"]

====

System: HCC 2998
assay.summary: NCI tumour cell line growth inhibition, 48 h
Activity calls are given as the source filed them. Cut-off read from the data, not from the text of the source: active = GI50 up to about 1.1 µM and inactive = higher.
Reply using exactly one outcome from active, inactive

CN(C(=O)C1=CCC2(CC1)OCCO2)c1ccccc1OS(=O)(=O)C(F)(F)F
inactive
Cc1ccc(/N=N/C(=O)NNc2ccc(C)cc2Br)c(Br)c1
inactive
CC/C=C\C=C/C(=O)N/C=C/CCC
inactive
CCOC(=O)c1cc(C2(O)CCN(CC(C)CC)C2=O)c(-c2cc(C)no2)[nH]1 (stereo unspecified)
inactive
CC1=CC(C)(C)N=C2SC(c3ccc(Cl)cc3)=NN12
inactive

Prompt: # lookup: test call for Cc1cc(-c2nc3cc(F)ccc3s2)ccc1N
Response: active

Prompt: # lookup: test call for O=C(c1ccc2c3c(ccc(C(=O)C(F)(F)F)c13)CC2)C(F)(F)F
Response: inactive

Prompt: # lookup: test call for O=C(O)c1cc(-c2ccccc2O)nc2ccccc12
Response: inactive

====

Test system: 786-0
assay.summary: NCI tumour cell line growth inhibition, 48 h
The source made the active and inactive calls. Rule as the data show it: active = GI50 up to about 1.1 µM and inactive = higher.
measured.endpoint: GI50

O=C1CSC(c2ccccc2)N1c1ccc(-n2c(-c3ccccc3)nc3ccccc3c2=O)cc1 (stereo unspecified)
> 92.9 µM (inactive)
CC(C)(C)c1ccc(O)c(Br)c1
> 100 µM (inactive)
COc1cc(C2c3cc4c(cc3OC(N3CCOCC3)C2C)OCO4)cc(OC)c1OC(C)=O (stereo unspecified)
15.8 µM (inactive)

Value sought for every listed compound: GI50.
1. Cc1oc(N)c(S(=O)(=O)/C(C#N)=C/c2ccccc2[N+](=O)[O-])c1C
2. CCOC(=O)Cc1ccc(Nc2nc3ccccc3nc2C(=O)OCC)cc1
3. CC(=O)OCCOCn1c2c(c(=S)[nH]c1=O)CCC2

Response:
["30.5 µM (inactive)", "34 µM (inactive)", "93.8 µM (inactive)"]

====

Tested on: HT-29
assay.summary: NCI tumour cell line growth inhibition, 48 h
Activity calls are given as the source filed them. Rule as the data show it: active = GI50 up to about 1.1 µM and inactive = higher.
Reply using exactly one outcome from t = active, f = inactive

Prompt: # lookup: test call for CCOC(=O)c1c2c(n3ccccc13)C(=O)c1ccccc1C2=O
Response: f

Prompt: # lookup: test call for Cc1nc2n(c1/C=C1/C(=O)Nc3ccccc31)CCS2
Response: f

Prompt: # lookup: test call for C=CCN1C(=O)C[C@H](Cc2ccccc2)NC(=O)C[C@H](Cc2ccccc2)N(CC=C)C(=O)C[C@H](Cc2ccccc2)NC(=O)C[C@@H]1Cc1ccccc1
Response: f

Prompt: # lookup: test call for COc1ccc(C(=C(I)c2ccccc2)c2ccc(OC)cc2)cc1
Response: f

====

Test system: SK-MEL-2
assay.summary: NCI tumour cell line growth inhibition, 48 h
Active and inactive are the calls of the source. Cut-off read from the data, not from the text of the source: active = GI50 up to about 1.1 µM and inactive = higher.
measured.endpoint: GI50

COC(=O)CSSCc1ccc([N+](=O)[O-])cc1
18.1 µM (inactive)
COc1ccc(C(=O)/C=C/c2cc(O)c(O)c(F)c2F)c(OC)c1
14.4 µM (inactive)
CN(C)CCNC(=O)c1cccc2[nH]c(-c3ccncc3)nc12
4.28 µM (inactive)
CC(C)=CCN1c2ccccc2NC(=O)CC1C (configuration not stated)
> 100 µM (inactive)
O=C(C#Cc1ccccc1)N1CCCCC1
> 100 µM (inactive)
CC(C)(C)OC(=O)N1N=NC2C1C1CC(OCc3ccccc3)(OCc3ccccc3)C2O1 (configuration not stated)
49.2 µM (inactive)
O=C(Nc1ccc(I)cc1C(=O)NCCO)c1cccs1
> 100 µM (inactive)
C/C=N\n1c(C)c(C#N)c(C#N)c1N
> 100 µM (inactive)
CC(C)OC(=O)[C@@H](O)[C@H](CO)C1=CC([Si](C)(C)c2ccccc2)=CON1
> 100 µM (inactive)
COc1cc2c(cc1OC)C(=O)N(c1ccc(O)cc1)C2=O
> 100 µM (inactive)

Value sought for every listed compound: GI50.
1. N#Cc1nc(C2CC2)oc1N
2. CN(C)CC(O)c1ccc(Cl)c2ccccc12 (configuration not stated)

Response:
> 100 µM (inactive)
19.3 µM (inactive)

====

System: UACC-257
assay.summary: NCI tumour cell line growth inhibition, 48 h
Activity calls are given as the source filed them. Cut-off read from the data, not from the text of the source: active = GI50 up to about 1.1 µM and inactive = higher.
Reply using exactly one outcome from true = active, false = inactive

CC[C@]1(Cc2ccc(OC)c(OC)c2)C2CC(C(=O)OC)ON2O[C@H](OCc2ccccc2)[C@@H]1OC(C)=O (stereo partly specified)
false

Prompt: # lookup: test call for COc1c(N2CCCCC2)c2c(=O)c3ccccc3oc2c2cc(C)oc12
Response: false

Prompt: # lookup: test call for O=C(c1ccccc1)C(c1ccccc1)C1(O)C(=O)Nc2ccccc21 (stereo unspecified)
Response: false

Prompt: # lookup: test call for CC(O)C1CC1(CO)CNc1cc(Cl)nc(N)n1 (stereo unspecified)
Response: false

Prompt: # lookup: test call for O=C(O)/C(=C\c1ccc(O)cc1)c1cccc2ccccc12
Response: false

Prompt: # lookup: test call for CC(=O)O[C@H]1C(=O)[C@@]2(C)C(C(OC(=O)c3ccccc3)[C@]3(O)C[C@H](OC(=O)C(OC(=O)CCCC(=O)NCCCN(C)C)C(NC(=O)c4ccccc4)c4ccccc4)C(C)=C1C3(C)C)C1(OC(C)=O)COC1C[C@@H]2O (stereo partly specified)
Response: true

Prompt: # lookup: test call for Cc1ccc2cc3c(ccc4ccccc43)c3c2c1CC3 [3-METHYLCHOLANTHRENE]
Response: false

Prompt: # lookup: test call for CC(C)=CC[C@]12CCN(C)[C@H]1N(S(=O)(=O)c1ccccc1)c1ccccc12
Response: false

Reference for the values: ChEMBL document CHEMBL1201862
